B1: SLC35F2 (parent)
chain: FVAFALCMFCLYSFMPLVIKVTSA

variants of: B1; assay: protein stability index of a GFP-peptide fusion (GPS, HEK-293T) (PSI 1-6); higher = more stable; conditions: c terminus: a fixed tail appended;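 note: lentivirally expressed fusions sorted by FACS into six bins by GFP to DsRed ratio, PSI derived from sequencing read proportions per bin multiplied by bin number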
observable: protein stability index

> print(dat)
    variant.code               observable  readout.value
 1          S13I  protein stability index           3.95
 2           C7V  protein stability index           3.59
 3          V18A  protein stability index           2.91
 4           F9C  protein stability index           2.94
 5           A3K  protein stability index           2.42
 6           C7I  protein stability index           2.35
 7          V18M  protein stability index           2.51
 8           A3D  protein stability index           2.37
 9           M8N  protein stability index           3.69
10          P16W  protein stability index           2.66
11          S13M  protein stability index           2.54
